Assay System: gastrin receptor (Rattus norvegicus, UniProt P30553)
Construct: The stomach was excised and flushed with ca. 1 ml of unbuffered physiological saline solution; from tissue; host or cells: isolated whole stomach of immature rats (ca. 21 days old)
Sequence (P30553 1-452): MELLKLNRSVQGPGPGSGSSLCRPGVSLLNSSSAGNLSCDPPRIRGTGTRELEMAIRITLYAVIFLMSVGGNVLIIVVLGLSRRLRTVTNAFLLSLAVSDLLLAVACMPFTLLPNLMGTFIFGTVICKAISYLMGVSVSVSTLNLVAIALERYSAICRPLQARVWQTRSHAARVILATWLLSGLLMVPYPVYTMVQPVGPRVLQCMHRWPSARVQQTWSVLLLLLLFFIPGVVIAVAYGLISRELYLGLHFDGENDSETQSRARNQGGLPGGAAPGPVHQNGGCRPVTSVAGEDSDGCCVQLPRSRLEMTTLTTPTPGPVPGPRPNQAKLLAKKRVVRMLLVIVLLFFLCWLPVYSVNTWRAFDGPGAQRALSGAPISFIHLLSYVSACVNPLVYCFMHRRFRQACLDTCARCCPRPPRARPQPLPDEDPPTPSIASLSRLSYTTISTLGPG
Run Description: gastrin antagonist activity in immature rat stomach assay (pentagastrin dose-response, acid secretion)
Conditions Used: isolated immature rat stomach, cumulative pentagastrin dose-response curves, read-out: Gastrin pKb (converted)
Classes by Kb: lower = under 10 nM, middle = from 10 nM up to 60 nM, upper = 60 nM and over

{"Molecule": "O=C(O)c1cccc(NC(=O)c2c(COC34CC5CC(CC(C5)C3)C4)nc(C34CCC(CC3)CC4)n2O)c1 [Example 314]", "Category": "lower"}
{"Molecule": "O=C(O)Cc1cccc(NC(=O)c2nc(C3CCCCC3)[nH]c2CCC23CC4CC(CC(C4)C2)C3)c1 [Example 84]", "Category": "upper"}
{"Molecule": "CCCCC(CC)c1nc(C(=O)Nc2cccc(C(=O)O)c2)c(CCC23CC4CC(CC(C4)C2)C3)[nH]1 (stereo not drawn) [Example 124]", "Category": "middle"}
{"Molecule": "CC1(c2nc(C(=O)Nc3cccc(C(=O)O)c3)c(COC34CC5CC(CC(C5)C3)C4)[nH]2)CCCCC1 [Example 303]", "Category": "middle"}
{"Molecule": "O=C(O)c1cccc(NC(=O)c2nc(C3CCCCCCC3)[nH]c2COC23CC4CC(CC(C4)C2)C3)c1 [Example 297]", "Category": "lower"}
{"Molecule": "O=C(O)c1cccc(NC(=O)c2nc(-c3ccc(Cl)cc3Cl)[nH]c2CCC23CC4CC(CC(C4)C2)C3)c1 [Example 146]", "Category": "middle"}
{"Molecule": "CC1(C)C2CC[C@]1(C)C(c1nc(C(=O)Nc3cccc(C(=O)O)c3)c(CCC34CC5CC(CC(C5)C3)C4)[nH]1)C2 (mixture of isomers) [Example 205]", "Category": "lower"}
{"Molecule": "O=C(O)c1cccc(NC(=O)c2nc(-c3ccccc3F)[nH]c2CCC2CCCCCC2)c1 [Example 43]", "Category": "upper"}
{"Molecule": "Nc1ccc(C(=O)O)cc1NC(=O)c1nc(C2CCCCC2)[nH]c1CCC12CC3CC(CC(C3)C1)C2 [Example 131]", "Category": "upper"}
{"Molecule": "O=C(O)c1cccc(NC(=O)c2[nH]c(C3CC3)nc2CCC23CC4CC(CC(C4)C2)C3)c1 [Example 197]", "Category": "upper"}
{"Molecule": "O=C(O)c1cc(NC(=O)c2nc(C3CCCCC3)[nH]c2COC23CC4CC(CC(C4)C2)C3)ccc1F [Example 299]", "Category": "middle"}

----------
Assay System: CCKB receptor (Mus musculus, UniProt P56481)
Construct: The whole brains from male mice (CD1 22-25 g; Charles River) were removed; from tissue; host or cells: cerebral cortex membranes of male CD1 mice
Sequence (P56481 whole entry): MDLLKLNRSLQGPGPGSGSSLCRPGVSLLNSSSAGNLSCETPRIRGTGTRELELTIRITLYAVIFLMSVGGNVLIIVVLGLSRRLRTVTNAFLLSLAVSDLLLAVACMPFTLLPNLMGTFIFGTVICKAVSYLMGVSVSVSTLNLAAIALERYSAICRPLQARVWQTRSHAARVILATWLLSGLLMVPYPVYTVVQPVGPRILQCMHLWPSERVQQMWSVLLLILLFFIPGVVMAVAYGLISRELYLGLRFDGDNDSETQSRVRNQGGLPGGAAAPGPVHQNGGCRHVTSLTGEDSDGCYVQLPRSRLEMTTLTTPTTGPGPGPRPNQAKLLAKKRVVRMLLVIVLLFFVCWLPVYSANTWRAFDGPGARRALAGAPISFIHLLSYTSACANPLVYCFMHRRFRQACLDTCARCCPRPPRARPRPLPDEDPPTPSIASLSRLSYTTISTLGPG
Run Description: CCKB receptor radioligand binding assay in mouse cortical membranes
Conditions Used: [125I]-CCK8(S) 200 pM, 150 min at 21±3°, read-out: CCKB pKi (converted)
Classes by Ki: low interval: < 40 nM; middle interval: ≥ 40 nM and < 500 nM; high interval: ≥ 500 nM

{"Compound": "O=C(O)c1cccc(NC(=O)c2[nH]c(-c3ccc4ccccc4c3)nc2CC2CCCCCC2)c1 [Example 21]", "Category": "high interval"}
{"Compound": "O=C(O)c1cccc(NC(=O)c2nc(-c3ccco3)[nH]c2CCC23CC4CC(CC(C4)C2)C3)c1 [Example 185]", "Category": "middle interval"}
{"Compound": "Cc1ccc(NC(=O)c2nc([C@@H]3CCCN3C)[nH]c2CCC23CC4CC(CC(C4)C2)C3)cc1C(=O)O [Example 138]", "Category": "middle interval"}
{"Compound": "Cc1ccccc1-c1nc(C(=O)Nc2ccc(F)c(C(=O)O)c2F)c(CCC23CC4CC(CC(C4)C2)C3)[nH]1 [Example 248]", "Category": "low interval"}
{"Compound": "Cc1ccccc1-c1nc(C(=O)Nc2cccc(C(=O)O)c2)c(CCC23CC4CC(CC(C4)C2)C3)o1 [Example 120]", "Category": "high interval"}
{"Compound": "CN(C)c1ccc(-c2nc(C(=O)Nc3cc(C(=O)O)cc(C(=O)O)c3)c(CC3CCCCCC3)[nH]2)cc1 [Example 31]", "Category": "high interval"}
{"Compound": "O=C(O)c1cccc(CNC(=O)c2nc(-c3ccccc3)[nH]c2CCC23CC4CC(CC(C4)C2)C3)c1 [Example 85]", "Category": "middle interval"}
{"Compound": "Cc1ccccc1-c1nc(C(=O)Nc2cccc(OCC(=O)O)c2)c(CCC23CC4CC(CC(C4)C2)C3)[nH]1 [Example 98]", "Category": "low interval"}
{"Compound": "O=C(O)c1cccc(NC(=O)c2[nH]c(C3CCCC3)nc2CCC23CC4CC(CC(C4)C2)C3)c1 [Example 196]", "Category": "low interval"}
{"Compound": "CC1(c2nc(C(=O)Nc3ccc(F)c(C(=O)O)c3)c(CCC34CC5CC(CC(C5)C3)C4)[nH]2)CCCCC1 [Example 201]", "Category": "low interval"}

----------
Recorded Kb by entry
Assay System: gastrin receptor (Rattus norvegicus)
Construct: The stomach was excised and flushed with ca. 1 ml of unbuffered physiological saline solution; from tissue; host or cells: isolated whole stomach of immature rats (ca. 21 days old)
Sequence (P30553 1-452): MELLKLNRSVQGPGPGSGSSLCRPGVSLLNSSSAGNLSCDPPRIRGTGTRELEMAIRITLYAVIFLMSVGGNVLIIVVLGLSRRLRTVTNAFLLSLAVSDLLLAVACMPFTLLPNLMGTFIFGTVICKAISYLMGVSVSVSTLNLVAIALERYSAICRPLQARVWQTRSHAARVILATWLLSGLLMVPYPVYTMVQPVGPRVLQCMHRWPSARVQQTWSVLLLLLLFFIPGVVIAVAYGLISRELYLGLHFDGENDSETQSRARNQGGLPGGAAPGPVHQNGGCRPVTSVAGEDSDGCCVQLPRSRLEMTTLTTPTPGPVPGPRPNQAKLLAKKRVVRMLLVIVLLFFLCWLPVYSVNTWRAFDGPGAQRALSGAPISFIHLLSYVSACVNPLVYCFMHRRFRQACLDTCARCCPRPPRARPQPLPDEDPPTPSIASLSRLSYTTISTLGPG
Run Description: gastrin antagonist activity in immature rat stomach assay (pentagastrin dose-response, acid secretion)
Conditions Used: isolated immature rat stomach, cumulative pentagastrin dose-response curves, read-out: Gastrin pKb (converted)

{"Molecule": "O=C(O)c1cccc(NC(=O)c2nc(C3(CO)CCCCC3)[nH]c2CCC23CC4CC(CC(C4)C2)C3)c1", "Assay System": "gastrin receptor (Rattus norvegicus)", "Kb": "5.75 nM"}
{"Molecule": "O=C(O)CCc1c(F)ccc(NC(=O)c2nc(C3CCCCC3)[nH]c2CCC23CC4CC(CC(C4)C2)C3)c1F", "Assay System": "gastrin receptor (Rattus norvegicus)", "Kb": "97.7 nM"}
{"Molecule": "O=C(O)c1cccc(NC(=O)c2cc(-c3ccccc3)[nH]c2CC2CCCCCC2)c1", "Assay System": "gastrin receptor (Rattus norvegicus)", "Kb": "1000 nM"}
{"Molecule": "O=C(O)c1cc(NC(=O)c2[nH]c(-c3ccccc3)nc2CC23CC4CC(CC(C4)C2)C3)cc(C(=O)O)c1", "Assay System": "gastrin receptor (Rattus norvegicus)", "Kb": "1260 nM"}
{"Molecule": "CC1(C)C2CC=C(c3nc(C(=O)Nc4cccc(C(=O)O)c4)c(CCC45CC6CC(CC(C6)C4)C5)[nH]3)C1C2 (stereo not drawn)", "Assay System": "gastrin receptor (Rattus norvegicus)", "Kb": "141 nM"}
{"Molecule": "O=C(O)c1cccc(NC(=O)c2nc(-c3ccc(F)cc3F)[nH]c2CCC23CC4CC(CC(C4)C2)C3)c1", "Assay System": "gastrin receptor (Rattus norvegicus)", "Kb": "7.76 nM"}
{"Molecule": "CC(Cc1[nH]c(C2CCCCC2)nc1C(=O)Nc1cccc(C(=O)O)c1)C12CC3CC(CC(C3)C1)C2 (racemic)", "Assay System": "gastrin receptor (Rattus norvegicus)", "Kb": "8.13 nM"}
{"Molecule": "Cc1ccc(NC(=O)c2nc(-c3ccccc3C)[nH]c2COC23CC4CC(CC(C4)C2)C3)cc1C(=O)O", "Assay System": "gastrin receptor (Rattus norvegicus)", "Kb": "10 nM"}
{"Molecule": "O=C(O)c1cccc(NC(=O)c2[nH]c(C3CCCC3)nc2CCC23CC4CC(CC(C4)C2)C3)c1", "Assay System": "gastrin receptor (Rattus norvegicus)", "Kb": "7.08 nM"}
{"Molecule": "CCCCCC12CCC(c3nc(C(=O)Nc4cccc(C(=O)O)c4)c(COC45CC6CC(CC(C6)C4)C5)[nH]3)(CC1)CC2", "Assay System": "gastrin receptor (Rattus norvegicus)", "Kb": "589 nM"}
{"Molecule": "O=C(O)c1cccc(NC(=O)c2nc(C3CCCCC3)[nH]c2COC23CC4CC(CC(C4)C2)C3)c1", "Assay System": "gastrin receptor (Rattus norvegicus)", "Kb": "0.871 nM"}
{"Molecule": "Cc1ccccc1-c1nc(CCC23CC4CC(CC(C4)C2)C3)c(C(=O)Nc2cccc(C(=O)O)c2)n1C", "Assay System": "gastrin receptor (Rattus norvegicus)", "Kb": "25.7 nM"}
